System: Fibrinogen (Alexa647-labelled)
Experiment: Alexa647-fibrinogen binding to printed small molecules – biochemical, small-molecule microarray, 635/667 nm fluorescence, artefact control for SMM control-protein annotation, profiling panel (AID 1131);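 further: z-score merges 667 nm fluorescence with per-spot signal-to-noise over triplicate slides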
Settings: fibrinogen-A647 binding fluorescence, higher = more signal
composite z-score vs 0.4: at or above is MET, below is NOT MET.

Check this molecule for composite z-score at or above 0.4: O=C1OCCC=C[C@H]2OC34C=CCN(Cn5nnc6ccccc65)C(=O)[C@H]3N(CCCCCO)C(=O)[C@@H]4C12 (some centres not stated)
NOT MET

composite z-score >= 0.4 for CCOC(=O)C[C@H]1[C@H](OC(=O)Cc2ccc3c(c2)OCO3)[C@@H](NC(=O)c2ccccc2)c2cc(OCCCO)ccc2N1C(=O)c1ccc2ccccc2n1 ?
NOT MET

Does composite z-score meet or surpass 0.4 for C=C(CCCC)/C(=C/C[C@@H](OC(=O)c1ccncc1)c1ccccc1OCCO)c1cc(C(=O)OC)ccc1OC ?
MET

// inclusive: composite z-score at least 0.4? input: Cc1ccc(S[C@]2(C(=O)O)CC(=O)N(C3CCCCC3)[C@@H]2c2ccc(CO)cc2)cc1
MET

hey, is composite z-score for this one >= 0.4? C=C(COC)C(=O)CC[C@H](OC(=O)c1ccccc1-c1ccccc1C(=O)O)c1ccc(CO)o1
NOT MET

Hi, just wondering whether C=CC[C@@]1(C(=O)NCC(O)CO)N=C(c2ccc(OCCCO)cc2)O[C@@H]1c1ccccc1 (some centres not stated) shows composite z-score of 0.4 or higher.
MET

Item CCCC=C(CCC)[C@@H](NS(=O)(=O)CC)c1ccccc1 with composite z-score of 0.4 or above?
MET

Quick check: does O=C1C2C=CC(C(O)c3cccc4ccccc34)N(Nc3ccccc3)C2C(=O)N1c1ccccc1 (configuration not stated) have composite z-score greater than or equal to 0.4?
MET

Could you verify whether the entry O=C1c2ccccc2[C@](Cc2ccccc2I)(C(=O)NC2CC2)[C@H](c2ccc(CO)cc2)N1Cc1ccccc1Cl shows composite z-score of no less than 0.4?
NOT MET

Determine whether this molecule has composite z-score no lower than 0.4: O=C1NC(=O)C2C1C=CC(C(O)CCc1ccccc1)N2Nc1ccccn1 (configuration not stated)
MET

Exam item: decide whether the reported composite z-score for COc1cc(C(O)C2C=CC3C(=O)N(C)C(=O)C3N2NC(=O)OC(C)(C)C)cc(OC)c1OC (configuration not stated) is at least 0.4.
MET

Answer whether composite z-score of C=CCOc1ccc([C@@H]2CC=C(C(=O)OCC)[C@H](c3cccc(Br)c3)N2S(=O)(=O)c2ccc(C)cc2)cc1 is greater than or equal to 0.4.
NOT MET

Is composite z-score for CN(C)C(=O)[C@@]1(Cc2ccccc2N=[N+]=[N-])N=C(c2ccc(OCCCO)cc2)O[C@H]1c1ccccc1N=[N+]=[N-] at or above 0.4?
MET

Could you tell me if the measured composite z-score of COC(=O)[C@@]1(Cc2ccc(F)cc2)[C@H]2c3cc(C(=O)N4CCCC4)n(Cc4ccccc4)c3C[C@H]2CN1C(=O)c1ccccc1 reaches 0.4 or more?
MET

Is it the case that COc1cc(C(O)C2C=CC3C(=O)NC(=O)C3N2Nc2ccc(Cl)cc2Cl)cc(OC)c1OC (configuration not stated) has composite z-score reaching or exceeding 0.4?
MET

Please tell me: is the molecule COCC(=C=CC[C@@H](O)c1ccccc1OCCO)C[C@@H](O)c1ccccn1 at or over 0.4 in terms of composite z-score?
NOT MET

Hello, I need to know if CN(C)CCCNC(=O)[C@@]1(Cc2ccccc2I)c2ccccc2C(=O)N(Cc2ccccc2Cl)[C@H]1c1ccc(CO)cc1 has measured composite z-score not below 0.4. Thanks!
MET

###

Assignment: determine reported composite z-score for the given compounds.
Test system: glycogen synthase kinase-3 (GSK3A per assay name; protocol says GSK3B)
Experiment: compounds binding glycogen synthase kinase-3 – biochemical, small-molecule microarray, 635 nm fluorescence, GSK3A, primary screen (AID 1103); further: the record names both GSK3A and GSK3B
Conditions: fluorescence 635 nm, higher = more signal
Answer as a number with no unit attached.

Give me measured composite z-score, please, for this compound: O=C1C[C@@](C(=O)NCc2ccccc2)(c2ccc([N+](=O)[O-])cc2)[C@@H](c2ccc(CO)cc2I)N1C1CCCCC1
1.16

Give the reported composite z-score for this compound. OCCCC1=CC(c2cccs2)N(Cc2cccc(OC(F)(F)F)c2)CC1 (stereo not drawn)
-0.729

Complete the entry with composite z-score for CC(C)c1ccc(NN2C(C(O)c3cccs3)C=CC3C(=O)N(c4ccccc4)C(=O)C32)cc1 (stereo not drawn)
1.31

Tell me composite z-score reported for C#CCNS(=O)(=O)N(C)C
0.642

Look up and state reported composite z-score for COC(=O)C(CC#Cc1ccc2c(c1)[C@]1(C(=O)N2)[C@H](C(=O)N2CCc3cc(OC)c(OC)cc3C2)[C@H]2C(=O)O[C@H](c3ccccc3)[C@H](c3ccccc3)N2[C@@H]1c1ccc(OCCO)cc1)C(=O)OC
1.3

For the compound CCOC(=O)C[C@H]1[C@H](OC(=O)Cc2ccc3c(c2)OCO3)[C@@H](NC(=O)c2ccccc2)c2cc(OCCCO)ccc2N1C(=O)c1ccc2ccccc2n1 , give its measured composite z-score value.
0.329

Tell us which composite z-score value is on record for C=C[C@@H](O)[C@H]1CC(c2ccccc2)=NO1
-0.408

Output measured composite z-score for this item: COCCCNC(=O)[C@@H]1c2ccccc2C(=O)N(c2ccc(C)cn2)[C@H]1c1ccc(CO)cc1
-1.19

Give the value of composite z-score reported for the following: C=CCOC(=O)[C@@H]1[C@H]2C(=O)O[C@H](c3ccccc3)[C@H](c3ccccc3)N2[C@H](c2ccc(OCCOC(=O)[C@@H]3C[C@@H]4C(=O)N[C@@H](CCCCNC(C)=O)C(=O)N4[C@@H]3c3ccc(O)cc3)cc2)[C@@]12C(=O)Nc1ccc(I)cc12
1.27

For the compound COc1ccc([Si](C)(C)[C@@H]2[C@@H](CC(=O)N(CCO)Cc3ccccc3)O[C@]3(C(=O)N(C)c4c(Br)cc(C)cc43)[C@H]2C)cc1 , give its reported composite z-score.
-0.27

Please give measured composite z-score of the following entry: COC(=O)[C@@]1(Cc2ccccc2)[C@H]2c3cc(C(=O)N(C)C)n(Cc4ccccn4)c3C[C@H]2CN1C(=O)c1ccccc1
0.225

Quote composite z-score reported for COC(=O)[C@]1(Cc2ccccc2CN=[N+]=[N-])N=C(c2ccc(OCCCO)cc2)O[C@@H]1c1ccccc1 please.
-1.08

Kindly indicate its recorded composite z-score. Item: CN1C(=O)C2C=CC(C(O)COCc3ccccc3)N(Nc3ccccc3)C2C1=O (stereo not drawn)
0.453

Give a short answer stating reported composite z-score for O=C(N1CCOCC1)[C@@]1(CCS(=O)(=O)c2ccccc2)COC(c2ccc(OCCCO)cc2)=N1 .
0.443

Quote composite z-score reported for COc1ccc(CCNC(=O)[C@@H]2c3ccccc3C(=O)N(Cc3ccccc3)[C@H]2c2ccc(CO)cc2)cc1 please.
0.432

Identify measured composite z-score corresponding to O=C1C2C=CC(C(O)c3ccc(Br)cc3)N(Nc3ccccc3)C2C(=O)N1c1ccccc1 (stereo not drawn)
0.435

In one line, give reported composite z-score of the entry NC(=O)NCC#Cc1ccc2c(c1)[C@]1(C(=O)N2)[C@H](c2ccc(OCCO)cc2)N2[C@H](c3ccccc3)[C@H](c3ccccc3)OC(=O)[C@H]2[C@@H]1C(=O)N1CCN(c2ncccn2)CC1 .
0.0283

Please look at this compound and report its composite z-score: C#CCOC(=O)N[C@H](C=CCCCC)c1ccccc1
0.35

State its composite z-score: CCOC(=O)C1=CC[C@@H](c2cccc(Br)c2)N(S(=O)(=O)c2ccc(C)cc2)[C@H]1c1ccc([N+](=O)[O-])cc1
0.356

Answer with the recorded composite z-score of COCCCNC(=O)[C@@]1(Cc2ccccc2I)c2ccccc2C(=O)N(Cc2ccccc2Cl)[C@H]1c1ccc(CO)cc1 only.
0.575

Annotate the compound C[C@H]1ON(c2ccccc2)[C@@H](c2ccccc2)[C@@H]1C(=O)N1C(=O)OC[C@@H]1c1ccccc1 with its measured composite z-score.
0.363

Item O=C1O[C@H](c2ccccc2)[C@H](c2ccccc2)N2[C@H]1[C@@H](C(=O)N1CCCCCCC1)[C@]1(C(=O)Nc3ccc(C#CCCO)cc31)[C@H]2c1ccc(OCCO)cc1 : provide composite z-score
1.45

Please look at this compound and report its composite z-score: CC[C@@H]1[C@@H]2C3C(=O)N(CC)C(=O)C3CC(=O)[C@@H]2[C@H](c2ccc(C)cc2)N1S(=O)(=O)c1ccc(C)cc1 (stereo partly drawn)
1.31

Tell me composite z-score reported for O=C1NC(=O)C2C1C=CC(C(O)c1ccc(-c3ccccc3)s1)N2Nc1ccccn1 (stereo not drawn)
-0.316

Please report the measured composite z-score for C[C@@]1([C@@H](NC(=O)c2cccs2)c2ccc(-c3ccccc3)cc2)C[C@H]1C1CCCCC1
-1.74

Given COc1cc2c(cc1OC)CN(C(=O)[C@@H]1[C@H]3C(=O)O[C@H](c4ccccc4)[C@H](c4ccccc4)N3[C@H](c3ccc(O)cc3)[C@@]13C(=O)Nc1ccc(C#CCNC(N)=O)cc13)CC2 , respond with its composite z-score.
-0.566

For the compound C=CCOC(=O)[C@H]1[C@@H]2C(=O)O[C@@H](c3ccccc3)[C@@H](c3ccccc3)N2[C@@H](c2ccc(OCCOC(=O)[C@H]3C[C@H]4C(=O)N[C@@H](CCCCN(C)C)C(=O)N4[C@H]3c3ccc(O)cc3)cc2)[C@]12C(=O)Nc1ccccc12 , give its reported composite z-score.
0.957

Retrieve composite z-score measured for C[C@]12C(=O)N(CCCO)[C@@H]3C(=O)N(c4ccc(Cl)cc4)CC=CC31O[C@@H]1/C=C\CCCOC(=O)C12 (stereo partly drawn) and print it.
-1.07

Origin of values: PubChem BioAssay
